Recorded abundance fitness by entry
B1: SAM and SH3 domain-containing protein 1, residues 630 to 700; numbered along this chain, O94885 (parent)
chain: GRPPQPKSVEDLLDRINLKEHMPTFLFNGYEDLDTFKLLEEEDLDELNIRDPEHRAVLLTAVELLQEYDSN

# Variants of: B1
# method: abundance fitness (aPCA) (normalised: wild type 0, dead -1); higher = more abundant; growth selection in yeast, the domain comes from the species named
# studyConditions: Homo sapiens
# output: bare number, no unit

Examples with their reported abundance fitness follow.
sequenceChange: D11N
measure: abundance fitness
resultNumber: -0.605

sequenceChange: M22E
measure: abundance fitness
resultNumber: -0.213

sequenceChange: E42C
measure: abundance fitness
resultNumber: -0.222

Ask | Endpoint output: abundance fitness of "K7S" . Value?
Reply | -0.097

Ask | Endpoint output: abundance fitness of "L13R" . Value?
Reply | -0.803

Ask | Endpoint output: abundance fitness of "E63Y" . Value?
Reply | -0.687

Ask | Endpoint output: abundance fitness of "L13M" . Value?
Reply | -0.724

Ask | Endpoint output: abundance fitness of "F27K" . Value?
Reply | 0.507

Ask | Endpoint output: abundance fitness of "F25C" . Value?
Reply | -0.701

Ask | Endpoint output: abundance fitness of "R2G" . Value?
Reply | -0.509

Ask | Endpoint output: abundance fitness of "Q5M" . Value?
Reply | -0.033

Ask | Endpoint output: abundance fitness of "P3L" . Value?
Reply | -0.036

Ask | Endpoint output: abundance fitness of "N71E" . Value?
Reply | 0.163

Ask | Endpoint output: abundance fitness of "V9H" . Value?
Reply | -0.909

Ask | Endpoint output: abundance fitness of "L44Q" . Value?
Reply | -0.873
